These measurements were taken from ChEMBL document CHEMBL3414500.

Consider molecules characterized by their pIC50 with Matrix protein 2 (Influenza A virus (A/Udorn/307/1972(H3N2)), UniProt P0DOF8, V27A).
Interpret pIC50 as the negative base-10 log of the concentration measured in mol/L.

- itemSmiles: "C1=C[C@H]2[C@H]3[C@H]4[C@@H]1[C@@H]1[C@H]2[C@@H]2[C@H]3[C@@H]3CNC[C@@H]3[C@H]4[C@H]12"
  pIC50: 3.73

## Input Under Matrix protein 2 (Influenza A virus (A/Udorn/307/1972(H3N2)), UniProt P0DOF8, V27A): pIC50 value of C1C[C@H]2[C@H]3[C@H]4[C@@H]1[C@@H]1[C@H]2[C@@H]2[C@H]3[C@@H]3CNC[C@@H]3[C@H]4[C@H]12 ?
## Output 4.76

## Input Give Matrix protein 2 (Influenza A virus (A/Udorn/307/1972(H3N2)), UniProt P0DOF8, V27A) pIC50 for N=C(N)N1C[C@@H]2[C@H](C1)[C@@H]1[C@@H]3[C@H]4CC[C@H]5[C@@H]3[C@H]2[C@H]2[C@@H]5[C@@H]4[C@@H]12
## Output 4.49
